# TARGET_ENTITY: T1, TSHR coated onto tubes (human, UniProt P16473 21-764, limits assumed)
# T1 construct: whole entry named; also called TSHR coated tubes; thyrotropin receptor
# ASSAY_NAME: TSHR coated tubes, competitor 125I-5C9 IgG
Assign t whenever % inhib of 125I-5C9 IgG binding at 100 µg/mL does not fall below 60%; assign f whenever it does.

{"columns": ["BINDER", "LABEL_VALUE"],
 "data": [
  ["2B4 IgG (antibody, V domains shown) VH: DVQLQQSGTVLARPGASVRMSCKASGYSFTRYWIHWLKQRPGQGLEWIGAIFPGNRDTSYNQRFKGKAEVTAVTSASTAYLDLSSLTNEDSAVYYCTRWPYYGSIYVNFDYWGQGTTLTVSS VL: DIVMTQSPLSLPVSLGDQASISCRTSQNLVHRNGNTYLHWYLQKPGQSPKLLIYKISNRFSGVPDRFSGSGSGTDFTLKISRVEAEDLGVYFCSQGTHVPPTFGGGTKLEIKR", "t"],
  ["17D2 IgG (antibody, V domains shown) VH: DVQIQQSGPELVKPGASVKMSCKASGYSFTAYNMHWVKQTHGKSLEWIGYIDPYSGATSYHQKFKGKATLTVDKSSSTAYMRLNSLTSEDSAVYYCARRWDWDPYAMDYWGQGTSVTVSS VL: SVEMSQSPAILSVSPGERISFSCRASQSIGTSIHWYQQRTNGSPRLLIKYASASISGIPSRFSGSGSGTDFTLSINSVESEDIADYYCQQSNSWPLTFGAGTKLELKR", "f"],
  ["9D33 IgG (antibody, V domains shown) VH: DVQIQQPGTELVKPGASVRLSCKASGYTFTTYWMHWVKQRPGQGLEWIGEIDPSDSYTNYNQKFKGKATLTVDKSSSTAYMHLSSLTSEDSAVYYCSRNYGSGYYFDYWGQGTTLTVSS VL: GVEMTQSPAIMSASPGEKVTMTCSASSSVSYMHWYQQKSGTSPKRWIYDTSKLASGVPARFSGSGSGTSYSLTISSMETEDAATYYCQQWSSNPWTFGGGTKLEIK", "t"],
  ["14D3 IgG (antibody, V domains shown) VH: DVQMQQPGPELVKPGASLKMSCKASGYSFTGYNMHWVKQSHGKSLEWIGYIDPYSGATSYNQKFEGKATLTVDKSSSTAYMQLNSLTSEDSAVYYCARRWDWDPYAMDYWGQGTSVTVSS VL: NILMTQSPAILSVSPGERVSFACRASQSIGTSIHWYQQRTNGSPRLLIKYASESISGIPSRFSGSGSGTDFTLSINSVESEDIADYYCQQTNRWPLTFGAGTKLELKR", "t"]
]}
